Record form. Attribute: IC50. Fill in for each entry.
test: Inhibition of gamma-secretase-mediated cleavage of human APP Swedish and London mutation expressed in HEK293 cell membrane; type: cell-based
Answers are plain numbers, in nM.

query smiles | endpoint unit | endpoint result
O=S(=O)(NC[C@@H]1CCC[C@@]2(S(=O)(=O)c3ccc(Cl)cc3)c3c(F)ccc(F)c3OC[C@@H]12)N1CCCC1 | nM | 3.3
CN(C)S(=O)(=O)NC[C@@H]1CCC[C@@]2(S(=O)(=O)c3ccc(C(F)(F)F)cc3)c3c(F)ccc(F)c3OC[C@@H]12 | nM | 6.8
NS(=O)(=O)NC[C@@H]1CCC[C@@]2(S(=O)(=O)c3ccc(C(F)(F)F)cc3)c3c(F)ccc(F)c3OC[C@@H]12 | nM | 18.7
O=S(=O)(NC[C@@H]1CCC[C@@]2(S(=O)(=O)c3ccc(Cl)cc3)c3c(F)ccc(F)c3OC[C@@H]12)c1ccccc1 | nM | 61
CCN(C[C@@H]1CCC[C@@]2(S(=O)(=O)c3ccc(C(F)(F)F)cc3)c3c(F)ccc(F)c3OC[C@@H]12)S(=O)(=O)C(F)(F)F | nM | 97
CCN(C[C@@H]1CCC[C@@]2(S(=O)(=O)c3ccc(Cl)cc3)c3c(F)ccc(F)c3OC[C@@H]12)S(C)(=O)=O | nM | 5.5
CCN(C[C@@H]1CCC[C@@]2(S(=O)(=O)c3ccc(Cl)cc3)c3c(F)ccc(F)c3OC[C@@H]12)S(=O)(=O)C1CC1 | nM | 20.5
O=S(=O)(CC(F)(F)F)NC[C@@H]1CCC[C@@]2(S(=O)(=O)c3ccc(Cl)cc3)c3c(F)ccc(F)c3OC[C@@H]12 | nM | 7.8
O=S(=O)(N(C[C@@H]1CCC[C@@]2(S(=O)(=O)c3ccc(Cl)cc3)c3c(F)ccc(F)c3OC[C@@H]12)C1CC1)C(F)(F)F | nM | 15
O=S(=O)(NC[C@@H]1CCC[C@@]2(S(=O)(=O)c3ccc(Cl)cc3)c3c(F)ccc(F)c3OC[C@@H]12)C(F)(F)F | nM | 12

Hi, could you look up IC50 for each item in my list?
1. O=S(=O)(CC(F)(F)F)NC[C@@H]1CCC[C@@]2(S(=O)(=O)c3ccc(C(F)(F)F)cc3)c3c(F)ccc(F)c3OC[C@@H]12
2. CCCCS(=O)(=O)NC[C@@H]1CCC[C@@]2(S(=O)(=O)c3ccc(Cl)cc3)c3c(F)ccc(F)c3OC[C@@H]12
3. O=S(=O)(NC[C@@H]1CCC[C@@]2(S(=O)(=O)c3ccc(C(F)(F)F)cc3)c3c(F)ccc(F)c3OC[C@@H]12)C1CC1
4. O=S(=O)(N(C[C@@H]1CCC[C@@]2(S(=O)(=O)c3ccc(C(F)(F)F)cc3)c3c(F)ccc(F)c3OC[C@@H]12)C1CC1)C(F)(F)F

[25, 13, 19.7, 35.3]
